Assay: Maximum plasma concentration at a concentration of 60 mg/kg perorally in rats along with control
Format: ADME, organism-based
Parameters: dose 60 mg/kg, route oral
Conditions: rat, po
Measured quantity: Cmax (ng/mL)
Quick note: give the figure in ng/mL, leave out the unit.

Query :: Item CN[C@@H]1C(O)[C@H](O[C@@H]2C(O)C(O[C@H]3OC(CN)CCC3N)[C@@H](N)C[C@H]2N)OC[C@@H]1O.O=S(=O)(O)O (stereo partly drawn) has what recorded Cmax?
Result :: 770

Query :: # repeat for CNC(C)C1CC[C@H](N)[C@@H](OC2[C@@H](O)[C@@H](O[C@H]3OC[C@H](O)[C@@H](NC)[C@@H]3O)[C@H](N)C[C@@H]2N)O1.O=S(=O)(O)O (stereo partly drawn)
Result :: 770

Query :: # repeat for CN[C@@H]1[C@H](O)[C@H](O[C@H]2[C@H](N)C[C@H](N)C(O[C@H]3OC(C(C)N)CC[C@@H]3N)[C@H]2O)OC[C@@H]1O.O=S(=O)(O)O (stereo partly drawn)
Result :: 770
